# System: Abp1 PPIs
# test_method_notes: DHFR-PCA of Abp1 SH3-swapped baits (Fig. 2B-D, S2C, S2F)
# Type: cell-based, Saccharomyces cerevisiae
# condition_context: distance to Abp1 bait with SLA1-3 SH3; sheet Fig2C
Reported Protein-protein interaction distance between Abp1 SH3-swapped baits, to SLA1-3 by item:
measure_name: Protein-protein interaction distance between Abp1 SH3-swapped baits, to SLA1-3

>  <molecule>
SHO1 (protein, UniProt P40073 1-367, looked up) High osmolarity signaling …: MSISSKIRPTPRKPSRMATDHSFKMKKFYADPFAISSISLAIVSWVIAIGGSISSASTNESFPRFTWWGIVYQFLIICSLMLFYCFDLVDHYRIFITTSIAVAFVYNTNSATNLVYADGPKKAAASAGVILLSIINLIWILYYGGDNASPTNRWIDSFSIKGIRPSPLENSLHRARRRGNRNTTPYQNNVYNDAIRDSGYATQFDGYPQQQPSHTNYVSSTALAGFENTQPNTSEAVNLHLNTLQQRINSASNAKETNDNSNNQTNTNIGNTFDTDFSNGNTETTMGDTLGLYSDIGDDNFIYKAKALYPYDADDDDAYEISFEQNEILQVSDIEGRWWKARRANGETGIIPSNYVQLIDGPEEMHR

>  <reading>
11.51

$$$$
>  <molecule>
LSB1 (protein, UniProt P53281 2-241, looked up) LAS seventeen-binding protein …: SASLVNRSLKNIRNELEFLKESNVISGDIFELINSKLPEKWDGNQRSPQNADTEEYVEALYDFEAQQDGDLSLKTGDKIQVLEKISPDWYRGKSNNKIGIFPANYVKPAFTRSASPKSAEAASSSTVSRPSVPPPSYEPAASQYPSQQVSAPYAPPAGYMQAPPPQQQQAPLPYPPPFTNYYQQPQQQYAPPSQQAPVEAQPQQSSGASSAFKSFGSKLGNAAIFGAGSAIGSDIVNSIF

>  <reading>
5.759

$$$$
>  <molecule>
PEX13 (protein, UniProt P80667 1-386, looked up) Peroxisomal membrane protein …: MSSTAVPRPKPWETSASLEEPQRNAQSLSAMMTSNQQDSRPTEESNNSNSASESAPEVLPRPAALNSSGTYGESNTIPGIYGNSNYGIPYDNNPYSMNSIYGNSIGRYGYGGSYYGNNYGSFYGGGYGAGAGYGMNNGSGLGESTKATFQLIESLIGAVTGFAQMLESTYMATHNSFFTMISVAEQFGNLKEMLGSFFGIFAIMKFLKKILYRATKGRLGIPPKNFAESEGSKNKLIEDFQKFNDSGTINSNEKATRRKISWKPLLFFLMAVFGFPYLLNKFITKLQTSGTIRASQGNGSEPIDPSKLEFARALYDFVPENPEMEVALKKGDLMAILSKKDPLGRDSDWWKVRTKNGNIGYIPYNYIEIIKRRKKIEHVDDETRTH

>  <reading>
6.985

$$$$
>  <molecule>
PIN3 (protein, UniProt Q06449 2-215, looked up) [PSI+] inducibility protein 3: SASLINRSLTNIRTELDFLKGSNVISNDVYDQINKSLPAKWDPANAPRNASPASLEYVEALYQFDPQQDGDLGLKPGDKVQLLEKLSPEWYKGSCNGRTGIFPANYVKPAFSGSNGPSNLPPPPQYKAQELQQIPTQNSAASSYQQQPFPPPSTNYYQQPQQQPQQAPPPQQQQQQQQHQSSHSHLKSFGSKLGNAAIFGAGASIGSDIVNNIF

>  <reading>
6.016

$$$$
